System: THRa homodimer (NR concentration 90 nM)
measurementDescription: PBM binding z-score (relative to random genomic background probes); higher = stronger binding; sequences stand for … in GC…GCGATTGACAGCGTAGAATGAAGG
# Lookup of reported PBM binding z-score keyed by entry
In your answer, state the number alone without any accompanying words.

Here is how some sequences turned out for PBM binding z-score.
Query: PBM binding z-score; subject: CCTCCAAGGTCAAAGGTCAGTGAAGAGATGACGG
2.63

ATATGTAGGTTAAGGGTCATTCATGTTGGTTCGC , same question.
1.52

CAAACTAGGTCACCGGACGGTCAAAGTCCGCATG , same question.
1.73

CCAGACAGGTGAGAACGTAACTCAGCCTCGATTA , same question.
0.361

TAGCCTAGGTCATTGGGACAGTATAGTACGCATC , same question.
1.14

TCAGATAGGTAAAAGGTGAAAGTCGGTGTGGTAA , same question.
0.528

ACAGACTGGTGAGTGAAGGTAACTCAGCTGGACG , same question.
-0.517

ATTTCTAGGTAAAGATAGTTCAGTGAATGCAAAT , same question.
0.00694

CGAACTAGGTCATCCAGGACAGGGAATACATTGA , same question.
1.93

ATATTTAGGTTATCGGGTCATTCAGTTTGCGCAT , same question.
3.93

New cases:
Query: PBM binding z-score; subject: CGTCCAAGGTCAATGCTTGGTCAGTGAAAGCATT
2.24

CCTGCTAGGTCATGGTCATCTAATCTACAGTATG , same question.
1.52

----------
System: PPARg DBDmut:RXRa IVT, anti-PPARg (DBD mutation: PPARg1 K132A/R137A, NR concentration 270 nM, RXRa partner concentration 90 nM)
measurementDescription: PBM binding z-score (relative to random genomic background probes); higher = stronger binding; sequences stand for … in GC…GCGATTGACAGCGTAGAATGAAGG
Decision: PBM binding z-score >= 0.8 yields YES, all other cases yield NO.

Could you tell me if the measured PBM binding z-score of ATCTCTAGGTATAAGTTCAGTGAATCCCGAGGAT reaches 0.8 or more?
YES

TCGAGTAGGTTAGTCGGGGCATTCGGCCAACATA , same question.
NO

ACTAGCAGGGCAAGTTTGGGTCACTCAAACAAAG , same question.
NO

TCTCGGAGGACACGAAGGTCAGAGCGTTCCAGAG , same question.
NO

GCGACTGGGGCATCAGCAGCTTACCATAACTTAA , same question.
NO

New cases:
Could you tell me if the measured PBM binding z-score of ATCGAAAGGTCGCCGAGGTGAGTATACACCGTTT reaches 0.8 or more?
YES

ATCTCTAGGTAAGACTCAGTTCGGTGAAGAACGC , same question.
NO

TCTAGTAGGCCAGAGGGTCACTCAAGAGGTACGG , same question.
NO

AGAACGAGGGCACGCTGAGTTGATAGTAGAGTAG , same question.
NO

ACTATTAGTTGCCTTAGGGCAACCGATACGACGC , same question.
NO

CGAACTAGGTCAAGGACTGTGAATCTCCGCACGC , same question.
NO

TCAGACAGGTGAGGGTAACTCAGGTACGCAGTCG , same question.
NO

ATAGGTAGGTTACATCCGGGTCATTCAGGCTATG , same question.
YES

GCGACTGGGGCATCATCAGGTTACCATAACTTAA , same question.
NO

TATAGAGGGTCAAAGGCCAGAGTACGAATGTCGA , same question.
YES

CAAACTAGGTGAAGGTCAAAGTCGGTTTGTGCCA , same question.
YES

CCTACTGGGCCAAAAAGGTCATTAATGCCGATAA , same question.
NO

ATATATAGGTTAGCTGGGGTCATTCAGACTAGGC , same question.
YES

ATCTCTAGGTTAAGTTCAGTGAAAGATCGATAGA , same question.
YES

----------
Tested on: LXRa:RXRa (NR concentration 270 nM, RXRa partner concentration 90 nM)
measurementDescription: PBM binding z-score (relative to random genomic background probes); higher = stronger binding; sequences stand for … in GC…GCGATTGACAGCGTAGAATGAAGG
# Lookup of reported PBM binding z-score keyed by entry
In your answer, state the number alone without any accompanying words.

Query: PBM binding z-score; subject: CCGACTGGGGCAGAAAGATTACCATACCATCCGG
-0.807

CGTCAAAGTTCAACGAAGGTAACGTAAAGCACGC , same question.
5.6

TAGCCTAGGTCATGGGCCACTATACCACGCGAAC , same question.
3.63

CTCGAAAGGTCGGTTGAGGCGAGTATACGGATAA , same question.
1.17

TCTTGTAGATCCACAGGAGGTTAAGAAAGATCGA , same question.
1.26

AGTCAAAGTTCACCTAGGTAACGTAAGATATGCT , same question.
5.63

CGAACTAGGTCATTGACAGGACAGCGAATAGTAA , same question.
2.83

ATATGTAGGTTATCGGGTCAGTCAGTTTGCGCAT , same question.
2.12

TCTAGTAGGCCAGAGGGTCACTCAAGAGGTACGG , same question.
1.06

GCTGCAAGGTCAGGTTGGTCAGCTAACGGGTACG , same question.
2.88

New cases:
Query: PBM binding z-score; subject: CGTCCAAGGTCAGCAGGTCAGCGAAAGCGACGTG
4.35

GCAGACAGGTGAAACGCAGGTAACTGAGGGTGGC , same question.
-0.241

----------
System: PPARg:RXRa 90nM:30nM, anti-RXR (NR concentration 90 nM, RXRa partner concentration 30 nM)
measurementDescription: PBM binding z-score (relative to random genomic background probes); higher = stronger binding; sequences stand for … in GC…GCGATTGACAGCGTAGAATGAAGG
reportedMetric: PBM binding z-score
In your answer, state the number alone without any accompanying words.

Give PPARg:RXRa 90nM:30nM, anti-RXR (NR concentration 90 nM, RXRa partner concentration 30 nM) PBM binding z-score for CCGACTGGGGCAGAAAGTTTACCATACCATCCGG
-0.116

New cases:
Give PPARg:RXRa 90nM:30nM, anti-RXR (NR concentration 90 nM, RXRa partner concentration 30 nM) PBM binding z-score for CCAGACAGGTGAGGAGGTAACTCAGCCTCGATTA
0.0478

CGTCCAAGGTAAAGGTCAGTGAAAGAGACTCGAA , same question.
5.72

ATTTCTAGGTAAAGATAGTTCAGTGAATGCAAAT , same question.
1.07

CGAACGAGGGTATGAGTTGATAGCAAATGCCGAT , same question.
0.292

AGAATGAAGTTAAGATCAGGGAAACAGAATACAT , same question.
0.34

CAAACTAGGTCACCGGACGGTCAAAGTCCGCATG , same question.
6.89

ACTATTATTTGAGACGAGGGCAACCGATAGGTTG , same question.
0.429

TCAGACAGGTGAAAGTAACTCAGGTACGCAGTCG , same question.
2.92

CTCGAAAGGTCGCTTGAGGTGAGTATACGGATAA , same question.
1.64

TCTGTTAGTTGATTAGGGCAACCGAAACAGCGGA , same question.
2.74

ATCGAAAGGTCGAGGTGAGTAAAGAGAAAGGGAA , same question.
2.5

----------
# Lookup of reported PBM binding z-score keyed by entry
System: RXRa homodimer (NR concentration 180 nM)
measurementDescription: PBM binding z-score (relative to random genomic background probes); higher = stronger binding; sequences stand for … in GC…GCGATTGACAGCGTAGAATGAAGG
In your answer, state the number alone without any accompanying words.

Here is how some sequences turned out for PBM binding z-score.
Query: PBM binding z-score; subject: AATACAGGGTCATCGTAAGCCAGAGTACGCACAG
6.56

TCTCGGAGGACGCGAAGGTCAGAGCTTTCCAGAG , same question.
1.67

CGTCCATGGTCAGCAGGTCAGTGAAAGCGACGTG , same question.
0.937

New cases:
Query: PBM binding z-score; subject: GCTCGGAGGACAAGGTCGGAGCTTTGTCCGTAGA
0.103

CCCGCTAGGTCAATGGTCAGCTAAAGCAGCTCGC , same question.
2.37

CCGACTGGGGCATCAGGTTACCATAAGCCAGCCC , same question.
0.214

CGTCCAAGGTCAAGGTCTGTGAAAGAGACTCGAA , same question.
5.2

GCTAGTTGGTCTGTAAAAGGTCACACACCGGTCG , same question.
5.65

CAAACTAGGTCACCGGAAGGTCAAAGCCCGCATG , same question.
6.03
